Tested on: mPTP
Protocol summary: mPTP activity (Ca2+ retention) assay in isolated rat liver mitochondria
Assay type: biochemical
Experimental parameters: isolated rat liver mitochondria; average value from multiple experiments (n ≥ 2)
Reported mPTP Rat liver pIC50 by item:

Query: Need mPTP Rat liver pIC50, item COc1cc(C)c(NC(=O)/C=C/c2cc3[nH]nc(C)c3cc2F)c(C)n1
Response: 7.6

Query: Give its mPTP Rat liver pIC50 value. Item: COc1cc(C)c(NC(=O)/C=C/c2ccc3c(F)n[nH]c3c2)c(C)n1
Response: 7.6

###

Tested on: mPTP
Protocol summary: mPTP activity (Ca2+ retention) assay in isolated rat liver mitochondria
Format: biochemical
Experimental parameters: isolated rat liver mitochondria; average value from multiple experiments (n ≥ 2)
Hi all, reminder that labels come from mPTP Rat liver pIC50, split as lower range = under 6, middle range = from 6 up to 7, upper range = 7 and over

Study these solved cases before continuing.
Cc1ncc(F)c(C)c1NC(=O)/C=C/c1cc2[nH]nc(F)c2cc1F    upper range
Cc1n[nH]c2cc(/C=C/C(=O)NC3CCc4ccccc43)cc(F)c12 (stereo not drawn)    middle range
CC1CCCC1NC(=O)/C=C/c1ccc2oc(=O)[nH]c2c1 (stereo not drawn)    lower range
CO[C@H]1Cc2ccccc2[C@@H]1NC(=O)/C=C/c1ccc2c(F)n[nH]c2c1    upper range
Cc1c(F)cccc1NC(=O)/C=C/c1ccc2c(c1)NC(=O)C21CC1    middle range

Query: Consider O=C(/C=C/c1ccc2nn[nH]c2c1F)NC1CCc2ccccc21 (stereo not drawn) . To which mPTP Rat liver pIC50 class does it belong?
Response: lower range

Query: Lab note: which band did Cc1c(F)cc(F)cc1NC(=O)/C=C/c1ccc2c(c1)NC(=O)C2 land in?
Response: lower range

Query: Categorize the following entry: COCc1c(F)cnc(C)c1NC(=O)/C=C/c1ccc2c(C)n[nH]c2c1
Response: middle range

Query: Given Cc1n[nH]c2cc(/C=C/C(=O)N[C@H]3c4ccccc4C[C@@H]3OCCF)ccc12 , name the class its mPTP Rat liver pIC50 places it in.
Response: upper range

Query: Record Cc1c(F)cccc1NC(=O)/C=C/c1ccc2c(c1)[nH]c(=O)n2C1CC1 — which class?
Response: middle range
